Assay: amyloid nucleation score (Sup35N fusion, yeast selection) (log enrichment); library NNK1; higher = more nucleation; inactive = no reads after selection;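 note: zero at mode of non-aggregating sequences after 7 days selection at 30°C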
assay_readout: amyloid nucleation score

Ask | Name the recorded amyloid nucleation score for PVMSRPAARMMGDSCHWSNR .
Reply | -0.585

Ask | Again, but for MSLSAVSNMVLMKGVGMR
Reply | -0.73

Ask | Again, but for IMRNVQTDA
Reply | 0.383

Ask | Again, but for PGSKAWFGSLISCLTPWVLR
Reply | -0.563

Ask | Again, but for CLGAVIDSGNHSNSCYIRGD
Reply | 2.07

Ask | Again, but for GSYGLDGILDQWTPLHSLGG
Reply | 0.64

Ask | Again, but for VTTYLG
Reply | -0.499

###

Assay: amyloid nucleation score (Sup35N fusion, yeast selection) (log enrichment); library NNK3; higher = more nucleation; inactive = no reads after selection
assay_readout: amyloid nucleation score

Solved entries:
{"columns": ["substance", "assay_readout", "measurement"],
 "data": [
  ["DACSVNEMSYVDTAGIWVWR", "amyloid nucleation score", "inactive"],
  ["IPFRLFQNDSEKMSWSCDVT", "amyloid nucleation score", "inactive"],
  ["PRNHIRSLSM", "amyloid nucleation score", "inactive"],
  ["RYLYTRNLDMTRTL", "amyloid nucleation score", "inactive"],
  ["CLCSTRVRGSFPPDSTVHNF", "amyloid nucleation score", "inactive"]
]}

Ask | Name the recorded amyloid nucleation score for SYYSSDKMIVSVGLLKRDAK .
Reply | inactive

Ask | Again, but for GMCWVDFVNNTASCVWFPLC
Reply | inactive

Ask | Again, but for WVSFCVCWNFNLY
Reply | 3.18

###

Assay: amyloid nucleation score (Sup35N fusion, yeast selection) (log enrichment); library NNK2; higher = more nucleation; inactive = no reads after selection
Reported values of amyloid nucleation score for individual entries
Write the value as a bare number.

Solved entries:
{"columns": ["substance", "amyloid nucleation score"],
 "data": [
  ["LTFLYGVGVRFCRPSLVVQS", 0.2],
  ["GVGHFFLIQINKMCPHMRMA", 2.98],
  ["GFGVPDWMFDSFSAAQLSQI", -0.343],
  ["SCFSIFMLIPSSATAIFSQI", -1.27]
]}

Ask | Name the recorded amyloid nucleation score for VFDGRYVESILSFF .
Reply | 3.96

Ask | Again, but for LLFMVIFDRECRVIIHCGTM
Reply | -0.21

Ask | Again, but for YDSTVFTITWAKWDVYSLST
Reply | 2.36

Ask | Again, but for MYRRSSWHLWWSKELFDAIY
Reply | -0.723

Ask | Again, but for DDDNRNNLLWAMNADLGLRC
Reply | 2.32

Ask | Again, but for DLAELISVKYLVTVSLWAGS
Reply | 0.621

Ask | Again, but for PDFRSP
Reply | -0.451

Ask | Again, but for DVQGWFVITSGFADGSQARR
Reply | 1.19

Ask | Again, but for THTLRGLQANRMISNNMDTI
Reply | -0.402

Ask | Again, but for IQVMSDMFKCDVTNVMGRRG
Reply | 2.99

###

Reported values of amyloid nucleation score for individual entries
Assay: amyloid nucleation score (Sup35N fusion, yeast selection) (log enrichment); library NNK1; higher = more nucleation; inactive = no reads after selection
Write the value as a bare number.

Solved entries:
{"columns": ["entry_sequence", "amyloid nucleation score"],
 "data": [
  ["KIVSEFCL", 0.36],
  ["TGDLGRTGKVTLGTLEDSKI", -0.694],
  ["FQVFYFGCGRHVMVSSYRWV", -0.363],
  ["AMKLVPLNLYFKDNKNQSSC", -0.033]
]}

Ask | Name the recorded amyloid nucleation score for SDALPVYVEFREGGKSRGWT .
Reply | -0.916

Ask | Again, but for GVKSQYALNKLGCGELWLRL
Reply | 0.364
